Assignment: determine reported growth inhibition for the given molecules.
# Experiment Summary: NCI Yeast Anticancer Drug Screen. Data for the rad50 strain (AID 155);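 also: 0% = growth of vehicle-only cultures of the same strain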
# Reported Conditions: S. cerevisiae rad50 strain growth inhibition; at 33.0 µM; active compounds read high
This is part of a sample that, as a whole, favours compounds with a hit. Of some 79,000 tested, about 15% had one in any assay.
Please state the figure in %; there is no need to write the unit.

**Q:** For the molecule COC(=O)/C=C(/C(=O)OC)C(Cl)(Cl)Cl , what growth inhibition is on record?
**A:** 93

**Q:** For the molecule CCCCCCN(CCCCCC)CC(O)c1ccnc2ccc(OC)cc12 (stereo not given) , what growth inhibition is on record?
**A:** -3

**Q:** For the molecule COc1cc(CSc2ccc(O)cc2)cc(O)c1O , what growth inhibition is on record?
**A:** 6

**Q:** For the molecule O=[n+]1c2ccccc2n([O-])c2cc(Br)ccc21 , what growth inhibition is on record?
**A:** 99

**Q:** For the molecule CC(/C=C/c1ccccc1)=N\NC(N)=S , what growth inhibition is on record?
**A:** 93

**Q:** For the molecule Nc1nc2ccc(NCc3ccc(C(=O)NC(CCC(=O)O)C(=O)O)cc3)cc2c(=O)[nH]1 (stereo not given) , what growth inhibition is on record?
**A:** 23

**Q:** For the molecule CN(C)c1ccc2c(SCC(=O)OCC(=O)[C@@]3(O)CC[C@H]4[C@@H]5CCC6=CC(=O)C=C[C@]6(C)[C@H]5C(=O)C[C@@]43C)c3ccc(N(C)C)cc3nc2c1 , what growth inhibition is on record?
**A:** 90

**Q:** For the molecule C/C=C/SC(=Nc1ccccc1)Nc1ccccc1 , what growth inhibition is on record?
**A:** -8

**Q:** For the molecule O=C1N=C2SC=C(NC(=S)Nc3ccccc3)N2NC12c1ccccc1-c1ccccc12 , what growth inhibition is on record?
**A:** 49

**Q:** For the molecule CCCCc1nnc(NS(=O)(=O)c2ccc(C)cc2)s1 , what growth inhibition is on record?
**A:** 45
